The entries below come with measured GI50 values attached.
# Tested on: Malme-3M
# method.summary: NCI tumour cell line growth inhibition, 48 h
Active and inactive are the calls of the source. Cut-off read from the data, not from the text of the source: active = GI50 up to about 1.1 µM and inactive = higher.

Examples with answers:
CC(=O)O[C@]1(C)OC(=O)[C@@H](C)N1[N+](=O)[O-]: > 100 µM (inactive)
CN1CC(=O)N(C)c2[nH]cnc2C1=O: > 100 µM (inactive)
CC(=O)Nc1ccc(NC(=O)c2c(Cl)c(Cl)c(Cl)c(Cl)c2-c2nc3ccccc3[nH]2)cc1: 51.4 µM (inactive)
O=C1/C(=C/c2cccc3ccccc23)CCc2ccc([N+](=O)[O-])cc21: 17.3 µM (inactive)
Cc1ccc(S(=O)(=O)NC(=O)Nc2cccc(S(N)(=O)=O)c2)cc1: > 100 µM (inactive)

Now take the following compound into account.
stdin: Data request, read-out GI50, for `NCCOc1ccc(/C(=C(/Cl)c2ccccc2)c2ccccc2)cc1`
stdout: 9.27 µM (inactive)

====

# Test system: Hs-578T
# method.summary: NCI tumour cell line growth inhibition, 48 h
Calls of active or inactive are those of the source. Cut-off read from the data, not from the text of the source: active = GI50 up to about 1.1 µM and inactive = higher.
Respond only with the outcome that fits, drawn from label 1 for active, label 0 for inactive

Worked set:
COc1ccc(-c2cc(O)c3c(C)ccnc3n2)cc1: label 0
C[C@]12[C@@H]3CC[C@H]1[C@@H](OC(=O)Nc1cc([N+](=O)[O-])cc([N+](=O)[O-])c1)C(=O)N2CC3: label 0
O=[N+]([O-])c1ccc(-c2csc3nc(-c4ccccc4)nn23)cc1: label 0
CC1=C[C@@H](C)C[C@]2(C)CC[C@H](O2)[C@]23CC[C@](CO)(C[C@H](O2)[C@@H]2O[C@@](C)(CC2=O)[C@@H](O)[C@H]2CC[C@@]4(CCC[C@@H](O4)[C@H](C)C(=O)O[C@H]4C[C@H]([C@]5(O)OCC[C@H](C)[C@@H]5O)O[C@H]4C=C1)O2)O3: label 1
C=C(C)CNC(=S)N(N)c1ccc2ccccc2c1: label 0
CSc1ccc(-c2cc(-c3nc4ccccc4[nH]3)nc(N)c2C#N)cc1: label 0

Now examine the next entry.
stdin: Outcome? `c1ccc([P+](c2ccccc2)(c2ccccc2)c2ccc([P+](c3ccccc3)(c3ccccc3)c3ccccc3)c3ccccc23)cc1`
stdout: label 0

====

The entries below come with measured GI50 values attached.
# Test system: SNB-19
# method.summary: NCI tumour cell line growth inhibition, 48 h
Calls of active or inactive are those of the source. No stated cut-off is given here; in the data, active = GI50 up to about 1.1 µM and inactive = higher.

Examples with answers:
N=C(CSSCC(=N)NCC12CC3CC(CC(C3)C1)C2)NCC12CC3CC(CC(C3)C1)C2: 19.2 µM (inactive)
O=C1C2C(C(=O)N1c1ccccc1)C1(c3ccccc3)CCC2(C(=O)c2ccccc2)O1 (configuration not stated): > 10 µM (inactive)
CCOc1ncn(-c2ccc(NC(=S)Nc3ncccn3)cc2)n1: 54 µM (inactive)

stdin: Fill in the recorded GI50 for this molecule, with SNB-19 as test system: `CCCCCCc1cc2cc(C(=O)Nc3cccc(F)c3)c(=N)oc2cc1O`
stdout: 3.55 µM (inactive)

stdin: Next entry: `O=C1Cc2ccccc2CCc2ccsc21`
stdout: > 100 µM (inactive)

stdin: Next entry: O=P1(Oc2ccccc2)N(CCCl)CCN1c1ccccc1 (configuration not stated)
stdout: > 100 µM (inactive)

stdin: Next entry: `O=[N+]([O-])c1ccc(NN=C2CN3CCN(C2)c2ccccc23)c([N+](=O)[O-])c1`
stdout: > 100 µM (inactive)

====

The entries below come with measured GI50 values attached.
# Tested on: A498
# method.summary: NCI tumour cell line growth inhibition, 48 h
Activity calls are given as the source filed them. Rule as the data show it: active = GI50 up to about 1.1 µM and inactive = higher.

CN1CC(=O)N(C)c2[nH]cnc2C1=O: > 100 µM (inactive)
COc1cc(C2c3cc4c(cc3[C@@H](Nc3ccc(N)cc3)C3COC(=O)[C@H]23)OCO4)cc(OC)c1O (stereo partly specified): 1.18 µM (inactive)
CCNC(CCCC(NCC)P(=O)(O)O)P(=O)(O)O (stereo unspecified): > 100 µM (inactive)
COC(=O)C(C)(C)/N=C/N(C)C: > 100 µM (inactive)
CN(C)C(=S)Oc1ccc2ccc(=O)oc2c1: > 100 µM (inactive)

Now take the following compound into account.
stdin: Data request, read-out GI50, for `COc1cc2cc(OC(C)=O)c3cc4c(cc3c2c(OC)c1OC)OCO4`
stdout: > 100 µM (inactive)

====

# System: SK-OV-3
# method.summary: NCI tumour cell line growth inhibition, 48 h
Calls of active or inactive are those of the source. Rule as the data show it: active = GI50 up to about 1.1 µM and inactive = higher. Peptide text beside a SMILES is read from it. * marks the point of attachment. Boc = CC(C)(C)OC(=O)*; OtBu = CC(C)(C)O*
Respond only with the outcome that fits, drawn from true (1) for active, false (0) for inactive

Worked set:
COc1ccc(-c2cc(O)c3c(C)ccnc3n2)cc1: false (0)
C(=C\c1ccc2ccccc2c1Nc1ccccc1)/c1ccccc1: false (0)
CC(C)(C)OC(=O)CC(NC(=O)OC(C)(C)C)C(=O)NC(Cc1ccccc1)C(N)=O (stereo not given) (Boc-Asp(OtBu)-Phe-NH2; configuration not given here): false (0)
CCN(CC)CCNc1n[n+]([O-])c2cc([N+](=O)[O-])ccc2[n+]1[O-]: true (1)

stdin: Outcome? `Cc1cc(C)c2c(=O)n(CN3CCC(O)(c4ccccc4)CC3)sc2n1`
stdout: false (0)

====

The entries below come with measured GI50 values attached.
# Test system: A549
# method.summary: NCI tumour cell line growth inhibition, 48 h
Calls of active or inactive are those of the source. No stated cut-off is given here; in the data, active = GI50 up to about 1.1 µM and inactive = higher.

Examples with answers:
O=[N+]([O-])c1ccccc1[S+]([O-])c1ccccc1 (stereo not given): 52.8 µM (inactive)
CC(=O)Oc1ccc2c(c1)Oc1cc(C(C)=O)ccc1C21OC(=O)c2ccccc21 (stereo not given): > 100 µM (inactive)
O=C(Nc1ccc(Cl)cc1Cl)C(=O)C(C(=O)c1ccc2ccccc2c1)C1OC(=O)c2ccccc21 (stereo not given): 8.32 µM (inactive)

stdin: Data request, read-out GI50, for `O=C(O)COc1ccc(C(=O)/C(SS/C(C(=O)c2ccc(OCC(=O)O)c(Cl)c2Cl)=C2\C=C(c3ccc(Cl)cc3)SS2)=C2/C=C(c3ccc(Cl)cc3)SS2)c(Cl)c1Cl`
stdout: 21.4 µM (inactive)

stdin: Next entry: `COC(=O)C1=C(c2ccc3c(c2)OCO3)O[C@H](c2cc(OC)c(OC)c(OC)c2)[C@H]1COC(C)=O`
stdout: 7.08 µM (inactive)

stdin: Next entry: `CC(C)(C)c1cc(/C=C(\C#N)C2=NCCO2)cc(C(C)(C)C)c1O`
stdout: 4.44 µM (inactive)

stdin: Next entry: `CC1=C(C(=O)Nc2ccccc2C)C(c2ccc([N+](=O)[O-])cc2)C(C(=O)Nc2ccccc2C)=C(C)N1`
stdout: 22.5 µM (inactive)

stdin: Next entry: `O=C(CCc1ccccc1)n1cccc1CO`
stdout: > 100 µM (inactive)

stdin: Next entry: `NCCOc1ccc(/C(=C(/Cl)c2ccccc2)c2ccccc2)cc1`
stdout: 16 µM (inactive)

stdin: Next entry: `CN(C)c1ccc(Cc2cc(C(C)(C)C)cc(C(C)(C)C)c2O)cc1`
stdout: 19.8 µM (inactive)

====

# Tested on: HOP-62
# method.summary: NCI tumour cell line growth inhibition, 48 h
Active and inactive are the calls of the source. Rule as the data show it: active = GI50 up to about 1.1 µM and inactive = higher.
The entries below come with measured GI50 values attached.

stdin: Data request, read-out GI50, for `Cc1ccc(C2=C(c3ccccc3)C(O)(c3ccccc3)C(c3ccccc3)=C2c2ccc(C)cc2)cc1`
stdout: > 100 µM (inactive)

stdin: Next entry: Cc1nc2ccc(S(=O)(=O)O)cc2c(=O)n1-c1ccc(C(=O)NN2C(=O)C(Cl)C2c2cccs2)cc1 (stereo not given)
stdout: 23.1 µM (inactive)

stdin: Next entry: `C/C(=N/NC(=S)NCCc1ccccn1)c1cnccn1`
stdout: 31.2 µM (inactive)

stdin: Next entry: CSc1nc2c(c(O)c(C)c(=O)n2C2OC(COC(C)=O)C(OC(C)=O)C(OC(C)=O)C2OC(C)=O)c(=O)n1C (stereo not given)
stdout: > 100 µM (inactive)

====

The entries below come with measured GI50 values attached.
# System: HOP-62
# method.summary: NCI tumour cell line growth inhibition, 48 h
The source made the active and inactive calls. Cut-off read from the data, not from the text of the source: active = GI50 up to about 1.1 µM and inactive = higher.

O=C(CCc1ccccc1)n1cccc1CO: > 100 µM (inactive)
C(=C\c1cccs1)/c1cccc(/C=C/c2cccs2)n1: 83 µM (inactive)
CC1=C2C(c3ccccc3)(c3ccccc3)C3C=CC2(C=N3)N(C(=O)NC2CCCCC2)C1=O (stereo not given): 17.5 µM (inactive)

stdin: Data request, read-out GI50, for `CN(/N=C/c1cccc2cccnc12)c1c([N+](=O)[O-])cc([N+](=O)[O-])cc1[N+](=O)[O-]`
stdout: > 100 µM (inactive)

stdin: Next entry: `N#Cc1c(C#N)c(SSc2c(C#N)c(C#N)c(N)n2-c2cccc3ccccc23)n(-c2cccc3ccccc23)c1N`
stdout: 21.7 µM (inactive)

stdin: Next entry: `O=C(/C=C/c1ccc(O)c(O)c1)c1ccc(O)cc1O`
stdout: 17.4 µM (inactive)

stdin: Next entry: `CC(C)Sc1nncc(/C(N)=N/O)n1`
stdout: > 100 µM (inactive)

stdin: Next entry: O=c1[nH]cnc(NC2C=C(CO)C(O)C2O)c1[N+](=O)[O-] (stereo not given)
stdout: > 100 µM (inactive)

stdin: Next entry: `CC(C)(C)c1cc(/C=C(\C#N)C2=NCCO2)cc(C(C)(C)C)c1O`
stdout: 4.3 µM (inactive)

stdin: Next entry: `O=C(NN1C(=O)c2ccccc2C1=O)c1ccccc1Nc1ccccc1C(=O)NN1C(=O)c2ccccc2C1=O`
stdout: > 100 µM (inactive)
